Molecular target: T1, cTnI quality control product recombinant protein (human, UniProt P19429 2-210, limits assumed)
T1 construct: treated as the same molecule; also called cTnI antigen; cardiac troponin I
T1 sequence (P19429 2-210 limits assumed): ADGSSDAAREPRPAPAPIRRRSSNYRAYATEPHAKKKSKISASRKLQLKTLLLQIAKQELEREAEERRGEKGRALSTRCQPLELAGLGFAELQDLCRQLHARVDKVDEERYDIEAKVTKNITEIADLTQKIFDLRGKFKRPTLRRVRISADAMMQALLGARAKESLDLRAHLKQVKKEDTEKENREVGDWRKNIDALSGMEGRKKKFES
Assay: AMC sensor, antibody immobilised, cTnI in solution
Description: Operating process: it is equilibrated in Buffer 1 (PBST) for 60 s, the antibody is immobilized in an antibody solution for 300 s, incubated in Buffer 2 (PBST) for 180 s, bound in antigen solution for 420 s, dissociated in the Buffer 2 for 1200 s, 10 mM of GLY solution with pH 1.69 and Buffer 3 are used for sensor regeneration, and data is output. KD represents an equilibrium dissociation constant, namely the affinity; Kon represents a binding rate; and Kd is represents a dissociation rate.
PROPERTY_LABEL: kon (M⁻¹ s⁻¹)
Response body: numeric value in M⁻¹ s⁻¹, unit text excluded.

| BINDER | kon, M⁻¹ s⁻¹ |
| --- | --- |
| Mutation 1-1 (antibody, V domains shown, built as m3) VH: EVQLQQSGPELVKPGASVKMSCKASGYTFTIYVLHWVKQKPGQGLEWIGYIQPYIDGTKYNEKFKGKATLTVDKSSSTAFMELSSLTSEDSAVYYCARSGYGNYGLAWLAYWGQGTLVTVSA VL: QAVVIQESALTTSPGETVTLTCRSSTGAATTSNYANWVQEKPDHLFTGLIGGSQNRAPGVPARFSGSLIGDKAALTITGAQTEDEAIYFCALVYSNQWVFGGGTKLTVLG | 86100 |

Recorded kon for Mutation 1-52 (antibody, V domains shown, Built as m8) VH: EVQLQQSGPELVKPGASVKMSCKASGYTFTIYVVHWVKQKPGQGLEWIGYINPYLDGTKYNEKFKGKATLTVDKSSSTAFMELSSLTSEDSAVYYCARSGYGNYGLAWLAYWGQGTLVTVSA VL: QAVVIQESALTTSPGETVTLTCRSSTGAATTSQYANWVQEKPDHLFTGLIGGSNNRAPGVPARFSGSLIGDKAALTITGAQTEDEAIYFCALVYSNNWVFGGGTKLTVLG , please?
81800

Another: Mutation 1-42 (antibody, V domains shown, Built as m8) VH: EVQLQQSGPELVKPGASVKMSCKASGYTFTLYVVHWVKQKPGQGLEWIGYINPYLDGTKYNEKFKGKATLTVDKSSSTAFMELSSLTSEDSAVYYCARSGYGQYGLAWLAYWGQGTLVTVSA VL: QAVVIQESALTTSPGETVTLTCRSSTGAVTTSNYANWVQEKPDHLFTGLIGGSNNRAPGVPARFSGSLIGDKAALTITGAQTEDEAIYFCALVYSNHWVFGGGTKLTVLG
82800

Moving on to the next binder: Mutation 1-43 (antibody, V domains shown, Built as m8) VH: EVQLQQSGPELVKPGASVKMSCKASGYTFTIYVLHWVKQKPGQGLEWIGYIYPYIDGTKYNEKFKGKATLTVDKSSSTAFMELSSLTSEDSAVYYCARSGYGNYGLAWLAYWGQGTLVTVSA VL: QAVVIQESALTTSPGETVTLTCRSSTGAATTSQYANWVQEKPDHLFTGLIGGSQNRAPGVPARFSGSLIGDKAALTITGAQTEDEAIYFCALVYSNQWVFGGGTKLTVLG
72900

The reported measurements were obtained from patent US20220033484A1.
